reported.conditions: in isopropanol, 323.15 K
measured.endpoint: solubility (mole fraction)

Prompt line: Item C1CNCCNCCNCCN1 has what recorded solubility (mole fraction)?
Response line: 0.00249

----------
reported.conditions: in isopropanol, 308.15 K
measured.endpoint: solubility (mole fraction)
Numbers only.

Prompt line: Query (compound): C1CNCCNCCNCCN1 ; field requested: solubility (mole fraction)
Response line: 0.00213
